Assay: small-molecule microarray binders of probe aDKK1, primary screen, biochemical, biotinylated probe, 635/667 nm fluorescence (AID 1099);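 further: score merges 667nm spot fluorescence with signal to noise across triplicate slides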
Conditions: higher = more signal
property: composite z-score
# respond with the number and nothing more

Before answering, review these 6 worked examples.
CCOC(=O)C1=CC[C@@H](c2ccccc2)N(S(=O)(=O)C[Si](C)(C)C)[C@H]1c1ccccc1: 0.319
COC(=O)C1(CC(C)C)C=C2C(=C(C(C)C)C(=O)C2C)CN1 (configuration not stated): 0.834
O=C1OCCC=C[C@H]2OC34C=CCN(c5ccc(Cl)cc5)C(=O)[C@H]3N(CCO)C(=O)[C@@H]4C12 (some centres not stated): -0.208
C[C@]1(C(=O)NCC(F)(F)F)c2ccccc2C(=O)N(Cc2ccc(OC(F)(F)F)cc2)[C@H]1c1ccc(CO)cc1: -0.0378
CC(C)C[C@H]1NC(=O)[C@@H](C)NC(=O)[C@@]23C(=O)N[C@@H](Cc4ccccc4)C2[C@H](C)[C@@]2(C)O[C@H]2C3/C=C/C/C=C\CNC1=O (some centres not stated): -0.334
COC(=O)[C@@]1(Cc2ccc(OC)cc2)[C@H]2c3cc(C(=O)N4CCCC4)n(CCc4ccc(OC)c(Br)c4)c3C[C@H]2CN1C(=O)c1ccccc1: 0.801

// moving on: another record for composite z-score
Requested field: composite z-score. Item: C[N+](C)(C)CCCC[C@@H]1NC(=O)[C@H]2C[C@@H](C(=O)NCCCCCNC(=O)CS)[C@@H](c3ccc(O)cc3)N2C1=O
-0.0443

====

Experiment: small-molecule microarray binders of probe aShh, primary screen, biochemical, biotinylated probe, 635/667 nm fluorescence (AID 1114);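 further: probe is biotin-labelled aShh protein from a stem cell growth factor screen; measures binding of labelled protein to compounds printed on the slide; score merges feature fluorescence at 667 nm with signal-to-noise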
Details: higher = more signal
composite z-score for assorted compounds
# respond with the number and nothing more

C=C(COC)/C(=C/C[C@H](OC(=O)c1ccncc1)c1ccc(OCCO)cc1)c1cc(C(=O)OC)ccc1OC: 0.157
CCCCC(=C=CC[C@@H](O)c1ccc(OCCO)cc1)C[C@@H](O)c1ccccn1: 0.0611
CCOC(=O)C1=C(C(=O)OCC)N(S(=O)(=O)CC[Si](C)(C)C)[C@H](c2ccccc2)CC1: -0.164
CC(C)C[C@@H]1NC(=O)[C@@H]2C[C@H](C(=O)NCCCC[N+](C)(C)C)[C@H](c3ccc(O)cc3)N2C1=O: 0.199

Requested field: composite z-score. Item: CCCCC(=C=CC[C@H](O)c1ccc(OCCO)cc1)C[C@H](O)c1ccccn1
-0.0011

====

Assay: binders of probe aHhip on microarray, primary screen, stem cell growth factor project, biochemical, small-molecule microarray, fluorescence 635/667 (AID 1087);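 further: score merges spot fluorescence at 667nm with spot signal to noise ratio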
Conditions: higher = more signal
Binary call on composite z-score: 1 from -0.02 upward, 0 beneath that.

COCCOC(=O)N1C(=O)[C@@]2(c3cc(C#CCCO)ccc31)[C@H](c1ccc(O)cc1)N1[C@H](c3ccccc3)[C@H](c3ccccc3)OC(=O)[C@H]1[C@@H]2C(=O)N1CCc2cc(OC)c(OC)cc2C1: 0

Please tell me: is the compound Cc1ccc(S[C@]2(C(=O)NCCCN(C)C)CC(=O)N(Cc3ccccc3Cl)[C@@H]2c2ccc(CO)cc2I)cc1 at or over -0.02 in terms of composite z-score?
0

Please tell me: is the compound COc1ccc(C(O)C2C=CC3C(=O)N(C)C(=O)C3N2Nc2ccc([N+](=O)[O-])cc2[N+](=O)[O-])cc1OCc1ccccc1 (configuration not stated) at or over -0.02 in terms of composite z-score?
0

Please tell me: is the compound O=C1N(Cc2ccccc2)c2ccccc2[C@H]2OC(c3ccc(OCCCO)cc3)=N[C@@]12Cc1ccccc1 at or over -0.02 in terms of composite z-score?
1

====

Assay: modulators of S6 phosphorylation in cells, primary screen, cell-based, A549, cytoblot, luminescence, serum-stimulated (AID 1158);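 further: serum-stimulated A549 lung adenocarcinoma cells; signal is phosphorylated S6 detected by cytoblot immunostaining with HRP secondary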
Conditions: A549 phospho-S6 cytoblot, 5 h, higher = more signal
property: z-score
# respond with the number and nothing more

Before answering, review these 5 worked examples.
COCCOC(=O)N1C(=O)[C@@]2(c3ccccc31)[C@H](C(=O)N1CCCCCCC1)[C@H]1C(=O)O[C@H](c3ccccc3)[C@H](c3ccccc3)N1[C@@H]2c1ccc(O)cc1: 1.94
COC(=O)[C@@H]1N=C(c2ccc(OCCCO)cc2)O[C@@H]1c1ccccc1CN=[N+]=[N-]: -0.239
CC(C)C[C@@H]1NC(=O)C([C@@H](C)OCc2ccccc2)NC(=O)[C@@]23C(=O)N[C@@H](Cc4ccccc4)C2[C@H](C)[C@@]2(C)O[C@H]2C3/C=C/CC/C=C/CNC1=O (stereo partly drawn): 0.189
C=C(COC)/C(=C/C[C@@H](OC(C)=O)c1ccccc1OCCO)c1cc(C(=O)OC)ccc1OC: -0.0651
COC(=O)[C@@]1(Cc2ccc(F)cc2)[C@H]2c3cc(C(=O)N4CCCC4)n(CCO)c3C[C@H]2CN1C(=O)c1ccccc1: 0.871

Requested field: z-score. Item: CCOC(=O)C1=CC[C@@H](c2ccccc2)N(S(=O)(=O)c2ccc(C)cc2)[C@H]1C#N
-0.769

Requested field: z-score. Item: NCCCC[C@@H]1NC(=O)[C@H]2C[C@@H](C(=O)O)[C@@H](c3cccc(OCCO)c3)N2C1=O
-0.993

Requested field: z-score. Item: COc1ccc(CCNC(=O)[C@@]2(Sc3ccc(C)cc3)CC(=O)N(C(C)C)[C@@H]2c2ccc(CO)cc2)cc1
-0.21

====

Molecular target: Concanavalin-A (Canavalia ensiformis) (UniProt P02866)
Sequence (P02866 whole entry, looked up): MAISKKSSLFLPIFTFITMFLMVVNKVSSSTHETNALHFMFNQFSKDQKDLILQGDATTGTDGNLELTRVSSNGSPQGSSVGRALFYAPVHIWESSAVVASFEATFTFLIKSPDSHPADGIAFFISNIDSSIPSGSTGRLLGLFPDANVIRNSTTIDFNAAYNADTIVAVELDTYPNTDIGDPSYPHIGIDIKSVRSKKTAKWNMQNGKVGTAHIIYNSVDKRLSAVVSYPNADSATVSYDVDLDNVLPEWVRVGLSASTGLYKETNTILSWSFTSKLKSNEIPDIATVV
Experiment: ConA small-molecule binders, primary screen, artefact control for SMM control protein annotation, biochemical, small-molecule microarray, Alexa647 label, 635 nm (AID 1127);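 further: z combines 667 nm emission intensity with signal-to-noise across three replicate slides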
Conditions: ConA-A647 binding fluorescence, higher = more signal
composite z-score for assorted compounds

Before answering, review these 9 worked examples.
COCCOC(=O)N1C(=O)[C@@]2(c3cc(C#CCCO)ccc31)[C@H](c1ccc(O)cc1)N1[C@H](c3ccccc3)[C@H](c3ccccc3)OC(=O)[C@H]1[C@@H]2C(=O)N1CCc2cc(OC)c(OC)cc2C1: 1.06
C=C(COC)C(=O)CC[C@@H](OC(C)=O)c1ccc(OCCO)cc1: 0.891
C=CCOC(=O)[C@H]1[C@@H]2C(=O)O[C@@H](c3ccccc3)[C@@H](c3ccccc3)N2[C@@H](c2ccc(OCCOC(=O)[C@@H]3C[C@@H]4C(=O)N[C@@H](Cc5ccccc5)C(=O)N4[C@@H]3c3ccc(O)cc3)cc2)[C@]12C(=O)Nc1ccccc12: 1.16
CN(C)CCCC[C@@H]1NC(=O)[C@@H]2C[C@H](C(=O)NCCCCCCNC(=O)CS)[C@H](c3cccc(OCCO)c3)N2C1=O: 0.658
COc1ccc(NN2C(C(O)c3ccc(OC)cc3)C=CC3C(=O)N(C4CCCCC4)C(=O)C32)cc1 (stereo not given): 0.872
COCCOC(=O)N1C(=O)[C@@]2(c3cc(C#CCCO)ccc31)[C@H](C(=O)N1CCN(c3ncccn3)CC1)[C@H]1C(=O)O[C@H](c3ccccc3)[C@H](c3ccccc3)N1[C@@H]2c1ccc(O)cc1: 0.983
CN(C)CCCNC(=O)[C@@]1(Cc2ccccc2I)c2ccccc2C(=O)N(Cc2ccccc2)[C@H]1c1ccc(CO)cc1: 1.09
COc1cccc(C[C@H]2C[C@@H](CO[Si](C(C)C)(C(C)C)C(C)C)N3C(=O)[C@@]4(C(C)=O)O[C@@]23[C@@H]2C(=O)N(C)C(=O)[C@@H]24)c1: 0.117
CC(C)C[C@@H]1NC(=O)[C@@H]2C[C@H](C(=O)NCCCC[N+](C)(C)C)[C@H](c3ccc(O)cc3)N2C1=O: 1.02

Requested field: composite z-score. Item: CCOC(=O)C[C@H]1[C@H](OC(=O)c2ccc(-c3ccccc3)cc2)[C@@H](NC(=O)c2ccc3ccccc3c2)c2cc(OCCCO)ccc2N1C(=O)c1ccccc1
0.353

====

Biological target: Fibroblast growth factor 2 (Homo sapiens)
Experiment: FGF2 binders on small-molecule microarrays, primary screen, biochemical, small-molecule microarray, 635/667 nm fluorescence (AID 1133)
Details: small-molecule microarray binding, FGF2, fluorescence 635/667; higher = more signal
Binary call on composite z-score: Y from -0.3 upward, N beneath that.

COCCOC(=O)N1C(=O)[C@@]2(c3cc(C#CC4=CCCCC4)ccc31)[C@H](C(=O)N1CCN(c3ncccn3)CC1)[C@H]1C(=O)O[C@H](c3ccccc3)[C@H](c3ccccc3)N1[C@@H]2c1ccccc1OCCO: Y
C=C(CC1([C@@H](NP(=O)(c2ccccc2)c2ccccc2)[C@H]2C[C@@H]2CCN(C(=O)OCC)S(=O)(=O)c2ccc(C)cc2)CC1)c1ccccc1: N
CCOC(=O)C1=CCC(c2cc3ccccc3[nH]2)N(S(=O)(=O)c2ccccc2[N+](=O)[O-])C1 (stereo not drawn): Y
C=C(COC)/C(=C/C[C@@H](OC(C)=O)c1ccccc1OCCO)c1cc(C(=O)OC)ccc1OC: Y

Please tell me: is the molecule COc1ccc([Si](C)(C)[C@H]2[C@H](CCn3cc([C@H](O)c4ccccc4)nn3)O[C@@]3(C(=O)N(c4ccccc4)c4ccccc43)[C@@H]2C)cc1 at or over -0.3 in terms of composite z-score?
Y

Please tell me: is the molecule CN(C)C(=O)[C@]1(Cc2ccccc2)N=C(c2ccc(OCCCO)cc2)O[C@@H]1c1ccccc1 at or over -0.3 in terms of composite z-score?
Y

Please tell me: is the molecule O=c1cccc(-c2ccccc2C(F)(F)F)o1 at or over -0.3 in terms of composite z-score?
N

Please tell me: is the molecule CN1C(=O)C2C(C1=O)C1C=C(c3ccc(CO)cc3)C2C(c2cccs2)N1C (stereo not drawn) at or over -0.3 in terms of composite z-score?
Y

Please tell me: is the molecule CCC[C@@H]1C=C(C(=O)OCC)[C@H](c2ccccc2)N1S(=O)(=O)c1ccc(C)cc1 at or over -0.3 in terms of composite z-score?
Y

Please tell me: is the molecule COC(=O)[C@@]1(Cc2ccc(F)cc2)[C@H]2c3cc(C(=O)N(C)C)n(CCn4cc([N+](=O)[O-])nc4C)c3C[C@H]2CN1C(=O)c1ccccc1 at or over -0.3 in terms of composite z-score?
N

Please tell me: is the molecule C=CCNC(=O)[C@@H]1[C@H]2C(=O)O[C@H](c3ccccc3)[C@H](c3ccccc3)N2[C@H](c2ccc(O)cc2)[C@@]12C(=O)Nc1ccc(C#CC3(O)CCCCCC3)cc12 at or over -0.3 in terms of composite z-score?
Y

Please tell me: is the molecule N[C@@H](Cc1ccccc1)Cn1cc(C2(O)CCCCC2)nn1 at or over -0.3 in terms of composite z-score?
N

Please tell me: is the molecule [N-]=[N+]=NCc1ccccc1C[C@]1(C(=O)O)COC(c2ccc(OCCCO)cc2)=N1 at or over -0.3 in terms of composite z-score?
N
